- Tested on: CRL-7250
- method.notes: Cytotoxic Profiling of Annotated Libraries Using Quantitative High-Throughput Screening (AID 1296008); note: nearly all actives have a fitted effect of over 60% in size
- test.context: Five cell lines viability, CellTiter-Glo ATP luminescence, 48-72 h
Results filed as inconclusive are left out. The source made the active and inactive calls. Calls come from the whole dose curve; as a rule, active = well fitted inhibition curve with a large enough effect; inconclusive = small, poorly fitted or top-dose-only effect; inactive = flat fitted curve, though single readings scatter.
// classify into 1 (yes) = active, 0 (no) = inactive

>>> assigned_class("COc1cc(O)c2c(c1)C1OC1C[C@H](O)[C@H](O)C(=O)C=CC[C@H](C)OC2=O (stereo not given in full)")
"1 (yes)"
>>> assigned_class("CC(C)(O)Cn1c(NC(=O)c2ccc(-c3cn[nH]c3)s2)nc2cc(CN3CCOCC3)ccc21")
"1 (yes)"
>>> assigned_class("COc1cc([C@@H]2c3cc4c(cc3[C@@H](O[C@@H]3O[C@@H]5CO[C@@H](c6cccs6)O[C@@H]5[C@H](O)[C@@H]3O)[C@H]3COC(=O)[C@H]23)OCO4)cc(OC)c1O")
"1 (yes)"
>>> assigned_class("NC1=N[C@H]2[C@H](CS[C@H]2CCCCC(=O)O)N1")
"0 (no)"

Next, consider the following compound.
Exercise: Assay outcome for `CC1(C)CC(O)CC(C)(C)N1[O]` : what was it?
Key: 0 (no)
